Provide the reported EC50 of each item.
Target: UniProtKB Q8IZK6
Sequence (Q8IZK6 whole entry): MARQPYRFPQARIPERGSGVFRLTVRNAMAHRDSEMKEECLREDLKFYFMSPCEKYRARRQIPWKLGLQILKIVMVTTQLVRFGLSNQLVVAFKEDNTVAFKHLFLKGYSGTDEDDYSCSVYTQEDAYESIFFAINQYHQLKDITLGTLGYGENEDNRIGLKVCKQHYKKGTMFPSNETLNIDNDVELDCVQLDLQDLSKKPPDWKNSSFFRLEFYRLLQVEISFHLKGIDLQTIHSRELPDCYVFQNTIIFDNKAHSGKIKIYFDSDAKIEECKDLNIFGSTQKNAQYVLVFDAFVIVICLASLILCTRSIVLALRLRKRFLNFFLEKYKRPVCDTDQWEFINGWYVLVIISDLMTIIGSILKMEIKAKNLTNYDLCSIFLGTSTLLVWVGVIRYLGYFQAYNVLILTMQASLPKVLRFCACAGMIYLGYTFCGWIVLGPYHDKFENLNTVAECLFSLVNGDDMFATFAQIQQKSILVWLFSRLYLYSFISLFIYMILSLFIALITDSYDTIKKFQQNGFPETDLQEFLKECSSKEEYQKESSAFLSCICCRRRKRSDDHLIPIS
Experiment: Fluorescent TRPML2 assay (as for TRPML1)
Settings: fluorescent calcium assay as for TRPML1, TRPML2 subtype

Query Smiles: Cc1cnccc1-c1cn(-c2cc(C#N)ccn2)c2ncnc(N3C[C@@H](C)N(C(=O)C(C)(C)O)C[C@@H]3C)c12
EC50: > 2000 nM

Query Smiles: CCC(O)(CC)C(=O)N1C[C@H](C)N(c2ncnc3c2c(-c2ccccc2)cn3-c2cc(C#N)ccn2)C[C@H]1C
EC50: 500 to 2000 nM

Query Smiles: CCOC(C)(C)C(=O)N1C[C@H](C)N(c2ncnc3c2c(C2CC2)cn3-c2cc(C#N)ccn2)C[C@H]1C
EC50: 500 to 2000 nM

Query Smiles: C[C@@H]1CN(c2ncnc3c2c(-c2ccncc2)cn3-c2cccc(C#N)c2)[C@@H](C)CN1C(=O)C(C)(C)O
EC50: > 2000 nM

Query Smiles: C[C@@H]1CN(c2ncnc3c2c(-c2ccccc2)cn3-c2cc(C#N)ccn2)[C@@H](C)CN1C(=O)C1(O)COC1
EC50: > 2000 nM

Query Smiles: C[C@@H]1CN(c2ncnc3c2c(-c2ccccc2F)cn3-c2cc(C#N)ccn2)[C@@H](C)CN1C(=O)CC(C)(C)O
EC50: > 2000 nM

Query Smiles: C[C@@H]1CN(c2ncnc3c2c(-c2ccccc2F)cn3-c2cc(C#N)ccn2)[C@@H](C)CN1C(=O)C(C)(C)OCC(F)(F)F
EC50: < 100 nM

Query Smiles: C[C@@H]1CN(c2ncnc3c2c(-c2ccncc2)cn3-c2cccc(OC(F)(F)F)c2)[C@@H](C)CN1C(=O)C(C)(C)O
EC50: > 2000 nM

Batch lookup, EC50 per entry.
1. COC1(C(=O)N2C[C@H](C)N(c3ncnc4c3c(-c3ccccc3F)cn4-c3cc(C#N)ccn3)C[C@H]2C)CN(C)C1
2. C[C@@H]1CN(c2ncnc3c2c(-c2ccccc2F)cn3-c2cc(C#N)ccn2)[C@@H](C)CN1C(=O)C1(O)CCCCC1
3. C[C@@H]1CN(c2ncnc3c2c(-c2ccccc2)cn3-c2cc(C#N)ccn2)[C@@H](C)CN1C(=O)CC(C)(C)O
4. COC1(C(=O)N2C[C@H](C)N(c3ncnc4c3c(-c3ccccc3F)cn4-c3cc(C#N)ccn3)C[C@H]2C)COC1
5. C[C@@H]1CN(c2ncnc3c2c(-n2cccn2)cn3-c2cc(C#N)ccn2)[C@@H](C)CN1C(=O)C(C)(C)O

Output:
> 2000 nM
500 to 2000 nM
500 to 2000 nM
500 to 2000 nM
> 2000 nM

====

Biological target: Human TRPML3 (Homo sapiens, UniProt Q8TDD5)
Sequence (Q8TDD5 1-553): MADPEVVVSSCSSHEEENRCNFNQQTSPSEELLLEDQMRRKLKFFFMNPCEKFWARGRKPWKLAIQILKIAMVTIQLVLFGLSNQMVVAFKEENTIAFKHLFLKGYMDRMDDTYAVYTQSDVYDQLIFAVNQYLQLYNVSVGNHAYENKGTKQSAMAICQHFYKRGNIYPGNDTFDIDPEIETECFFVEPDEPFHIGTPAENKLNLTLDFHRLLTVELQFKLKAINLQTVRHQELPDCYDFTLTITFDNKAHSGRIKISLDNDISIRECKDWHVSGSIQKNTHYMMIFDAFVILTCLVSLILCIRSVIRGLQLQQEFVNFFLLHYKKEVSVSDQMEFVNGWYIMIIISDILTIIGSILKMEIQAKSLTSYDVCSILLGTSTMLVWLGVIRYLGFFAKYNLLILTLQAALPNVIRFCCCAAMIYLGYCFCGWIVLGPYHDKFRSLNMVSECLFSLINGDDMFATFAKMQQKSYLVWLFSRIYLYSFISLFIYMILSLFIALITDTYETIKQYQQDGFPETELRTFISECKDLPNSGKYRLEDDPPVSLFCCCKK
Test: Fluorescent TRPML3 assay (as for TRPML1)
Details: fluorescent calcium assay as for TRPML1, TRPML3 subtype
pEC50: −log10 of the molar value.
Could you please report measured pEC50 for the items listed next?

See these solved cases before continuing.
Molecule: CC(C)[C@H]1CN(C(=O)C(C)(C)O)CCN1c1ncnc2c1c(-c1ccccc1)cn2-c1cc(C#N)ccn1 [Compound 112]
pEC50: 5.70 to 6.30
--
Molecule: C[C@@H]1CN(c2ncnc3c2c(-c2ccccc2)cn3-c2cc(F)ccn2)[C@@H](C)CN1C(=O)C(C)(C)O [Compound 106]
pEC50: < 5.70
--
Molecule: C[C@@H]1CN(c2ncnc3c2c(-c2ccccc2F)cn3-c2cc(C#N)ccn2)[C@@H](C)CN1C(=O)C1(O)CCCCC1 [Compound 122]
pEC50: > 7.00

Give measured pEC50 for every item shown.
1. C[C@@H]1CN(c2ncnc3c2c(-c2cnco2)cn3-c2cc(C#N)ccn2)[C@@H](C)CN1C(=O)C(C)(C)O [Compound 127]
2. C[C@@H]1CN(c2ncnc3c2c(-c2ccccc2)cn3-c2cc(C#N)ccn2)[C@@H](C)CN1C(=O)C(O)(C(F)(F)F)C(F)(F)F [Compound 110]
3. C[C@@H]1CN(c2ncnc3c2c(C2CC2)cn3-c2cc(C#N)ccn2)[C@@H](C)CN1C(=O)CC(C)(C)O [Compound 160]
4. CC[C@H]1CN(C(=O)C(C)(C)O)CCN1c1ncnc2c1c(-c1ccccc1)cn2-c1cc(C#N)ccn1 [Compound 111]
5. C[C@@H]1CN(c2ncnc3c2c(-n2cccn2)cn3-c2cc(C#N)ccn2)[C@@H](C)CN1C(=O)C(C)(C)O [Compound 133]
6. CCOC(C)(C)C(=O)N1C[C@H](C)N(c2ncnc3c2c(C2CC2)cn3-c2cc(C#N)ccn2)C[C@H]1C [Compound 172]
7. C[C@H]1CN(C(=O)C2(O)CCC2)CCN1c1ncnc2c1c(-c1ccccc1F)cn2-c1cc(C#N)ccn1 [Compound 117]
8. C[C@@H]1CN(c2ncnc3c2c(-c2ccncc2)cn3-c2cc(C#N)ccn2)[C@@H](C)CN1C(=O)C1(O)CCCCC1 [Compound 151]

Output:
1. < 5.70
2. 6.30 to 7.00
3. 5.70 to 6.30
4. 5.70 to 6.30
5. 5.70 to 6.30
6. 5.70 to 6.30
7. 5.70 to 6.30
8. 6.30 to 7.00

Hey, can you go through the list below and give me pEC50 for every item?
1. C[C@@H]1CN(c2ncnc3c2c(-n2ccnc2)cn3-c2cc(C#N)ccn2)[C@@H](C)CN1C(=O)C(C)(C)O [Compound 132]
2. C[C@@H]1CN(c2nccc3c2c(-c2ccncc2)cn3-c2cc(C#N)ccn2)[C@@H](C)CN1C(=O)C(C)(C)O [Compound 140]

Output:
< 5.70
< 5.70

Task: Need pEC50, item C[C@@H]1CN(c2ncnc3c2c(-c2cncnc2)cn3-c2cc(C#N)ccn2)[C@@H](C)CN1C(=O)C(C)(C)O [Compound 116]
Output: < 5.70

====

Hi there, I'd appreciate the recorded pEC50 for every entry that follows.
Target: Human TRPML3 (Homo sapiens, UniProt Q8TDD5)
Sequence (Q8TDD5 1-553): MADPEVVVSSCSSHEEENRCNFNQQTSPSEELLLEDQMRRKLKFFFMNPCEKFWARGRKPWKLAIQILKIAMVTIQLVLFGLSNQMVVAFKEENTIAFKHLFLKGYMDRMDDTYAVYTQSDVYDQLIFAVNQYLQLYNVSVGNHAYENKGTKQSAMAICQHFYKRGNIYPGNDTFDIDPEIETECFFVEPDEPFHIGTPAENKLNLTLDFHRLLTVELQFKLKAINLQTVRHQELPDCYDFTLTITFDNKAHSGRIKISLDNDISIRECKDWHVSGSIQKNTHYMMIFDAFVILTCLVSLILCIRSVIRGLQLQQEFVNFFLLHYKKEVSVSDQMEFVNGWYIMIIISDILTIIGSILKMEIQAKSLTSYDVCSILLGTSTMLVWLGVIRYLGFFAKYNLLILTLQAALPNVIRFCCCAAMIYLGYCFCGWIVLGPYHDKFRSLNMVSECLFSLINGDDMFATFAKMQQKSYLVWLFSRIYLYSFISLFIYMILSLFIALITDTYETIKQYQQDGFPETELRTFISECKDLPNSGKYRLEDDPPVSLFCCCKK
Assay: Fluorescent TRPML3 assay (as for TRPML1)
Settings: fluorescent calcium assay as for TRPML1, TRPML3 subtype
pEC50: −log10 of the molar value.

Here are 3 compounds together with their reported answers.
Compound: COC1(C(=O)N2C[C@H](C)N(c3ncnc4c3c(-c3ccccc3F)cn4-c3cc(C#N)ccn3)C[C@H]2C)COC1 [Compound 166]
Assay Readout: pEC50
Measured Result: > 7.00
--
Compound: C[C@@H]1CN(c2ncnc3c2c(-c2ccccc2)cn3-c2cc(C#N)ccn2)[C@@H](C)CN1C(=O)C1(O)CC1 [Compound 156]
Assay Readout: pEC50
Measured Result: < 5.70
--
Compound: CC(C)[C@H]1CN(C(=O)C(C)(C)O)[C@H](C)CN1c1ncnc2c1c(-c1ccccc1)cn2-c1cc(C#N)ccn1 [Compound 131]
Assay Readout: pEC50
Measured Result: 5.70 to 6.30

Now take the following compound into account.
Task: Dear colleague, I am looking for the recorded pEC50 of the following compound: C[C@@H]1CN(c2ncnc3c2c(-c2ccncc2F)cn3-c2cc(C#N)ccn2)[C@@H](C)CN1C(=O)C(C)(C)O [Compound 146]
Output: 5.70 to 6.30
